Data provenance: the RNAGym collection of RNA variant scans (doi:10.1101/gr.219683.116)

B1: mRNA-splicing (parent)
chain: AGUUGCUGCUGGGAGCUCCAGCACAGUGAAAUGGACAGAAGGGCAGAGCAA

Variants of: B1
assay_info: exon inclusion enrichment index; higher = more inclusion; WT1 exon 5 minigene, HEK293
Classification field: enter 1 for exon inclusion enrichment index values not below 0.6, 0 for values below it.

Confirm if exon inclusion enrichment index reported for the variant C6A U7A C9A U10A G43U C44A is 0.6 or above.
0

Confirm if exon inclusion enrichment index reported for the variant G5C C6G U7C U10C A14G G15C is 0.6 or above.
1

Confirm if exon inclusion enrichment index reported for the variant G5A U7C G8A U10C G48A is 0.6 or above.
1

Confirm if exon inclusion enrichment index reported for the variant G5A C6U U7A G8U C9A C18U C19G is 0.6 or above.
0

Confirm if exon inclusion enrichment index reported for the variant C6A U7A C9A U10A C16A U17A is 0.6 or above.
0

Confirm if exon inclusion enrichment index reported for the variant G5C C6G U7C U10C G42U G43C is 0.6 or above.
1

Confirm if exon inclusion enrichment index reported for the variant G5C C6U G8C C9U U10C A30G A31G is 0.6 or above.
0

Confirm if exon inclusion enrichment index reported for the variant G5A C6U U7A G8U C9A U32A G33C is 0.6 or above.
0

Confirm if exon inclusion enrichment index reported for the variant G5C C6G U7C C9U U10C is 0.6 or above.
1

Confirm if exon inclusion enrichment index reported for the variant G5U G8U C9U C16U U17C is 0.6 or above.
0

Confirm if exon inclusion enrichment index reported for the variant G5A C6G U7G C9A G21C C22U is 0.6 or above.
0

Confirm if exon inclusion enrichment index reported for the variant G5A U7C G8A U10C U17C C18U is 0.6 or above.
1

Confirm if exon inclusion enrichment index reported for the variant G5U U7G C9A is 0.6 or above.
1

Confirm if exon inclusion enrichment index reported for the variant G5A U7C G8A U10C C36U is 0.6 or above.
1

Confirm if exon inclusion enrichment index reported for the variant C6A U7A C9A U10A C18G C19U is 0.6 or above.
0

Confirm if exon inclusion enrichment index reported for the variant G5C C6U G8C C9U U10C G34A A35C is 0.6 or above.
1

Confirm if exon inclusion enrichment index reported for the variant G5A U7C G8A U10C A20G G21U is 0.6 or above.
1

Confirm if exon inclusion enrichment index reported for the variant G5C C6A U7C G8A U10A C22G A23G is 0.6 or above.
0

Confirm if exon inclusion enrichment index reported for the variant C6A U7A C9A U10A A23C C24U is 0.6 or above.
0

Confirm if exon inclusion enrichment index reported for the variant G5C C6U G8C C9U U10C A40U G41U is 0.6 or above.
1

Confirm if exon inclusion enrichment index reported for the variant G5A C6G U7G C9A A23C C24A is 0.6 or above.
0

Confirm if exon inclusion enrichment index reported for the variant G5A U7C G8A U10C C36U A37U is 0.6 or above.
1

Confirm if exon inclusion enrichment index reported for the variant G5C C6U G8C C9U G11U is 0.6 or above.
1

Confirm if exon inclusion enrichment index reported for the variant G5C C6A U7C G8A U10A G13U A14U is 0.6 or above.
0

Confirm if exon inclusion enrichment index reported for the variant C6A U7C C9A U10C G12A G13A is 0.6 or above.
1

Confirm if exon inclusion enrichment index reported for the variant G5A C6G U7G C9A A40C G41U is 0.6 or above.
0

Confirm if exon inclusion enrichment index reported for the variant C6A U7A C9A U10A G43A C44G is 0.6 or above.
1

Confirm if exon inclusion enrichment index reported for the variant G5A U7C G8A U10C G34A A35G is 0.6 or above.
1

Confirm if exon inclusion enrichment index reported for the variant U7A C9A U10C is 0.6 or above.
1

Confirm if exon inclusion enrichment index reported for the variant G5C C6U G8C C9U U10C C24U A25U is 0.6 or above.
1

Confirm if exon inclusion enrichment index reported for the variant G5C C6G U7C U10C C16A is 0.6 or above.
1

Confirm if exon inclusion enrichment index reported for the variant G5A U7C G8A U10C G33U is 0.6 or above.
1

Confirm if exon inclusion enrichment index reported for the variant G5C C6G U7C U10C A23C C24U is 0.6 or above.
1

Confirm if exon inclusion enrichment index reported for the variant G5C C6G U7C U10C A31U U32A is 0.6 or above.
1

Confirm if exon inclusion enrichment index reported for the variant G5A U7C G8A U10G G11A is 0.6 or above.
1

Confirm if exon inclusion enrichment index reported for the variant C6A U7C C9U U10A is 0.6 or above.
0

Confirm if exon inclusion enrichment index reported for the variant G5U G8U C9U A30U A31U is 0.6 or above.
0

Confirm if exon inclusion enrichment index reported for the variant G5A C6G U7G C9A C19U A20G is 0.6 or above.
0

Confirm if exon inclusion enrichment index reported for the variant C6A U7C C9A U10C C19G A20C is 0.6 or above.
1

Confirm if exon inclusion enrichment index reported for the variant C6A U7C G8A C9A U10A is 0.6 or above.
0

Confirm if exon inclusion enrichment index reported for the variant C6A U7C C9A U10C C18A C19A is 0.6 or above.
1

Confirm if exon inclusion enrichment index reported for the variant G5C C6A U7C C9A U10A is 0.6 or above.
1

Confirm if exon inclusion enrichment index reported for the variant C6A U7A C9A U10A U32A G33U is 0.6 or above.
0

Confirm if exon inclusion enrichment index reported for the variant C6A U7A G8C U10A is 0.6 or above.
0

Confirm if exon inclusion enrichment index reported for the variant G5A U7C G8A U10C G42U G43U is 0.6 or above.
1

Confirm if exon inclusion enrichment index reported for the variant A40C is 0.6 or above.
0

Confirm if exon inclusion enrichment index reported for the variant U4C G5U C6U G8C C9U U10C is 0.6 or above.
1

Confirm if exon inclusion enrichment index reported for the variant G5C C6G U7C U10C A47G G48A is 0.6 or above.
1

Confirm if exon inclusion enrichment index reported for the variant G5C C6U G8C C9U U10C A30G A31U is 0.6 or above.
1

Confirm if exon inclusion enrichment index reported for the variant G5C C6G U7C U10C A25G G26C is 0.6 or above.
1

Confirm if exon inclusion enrichment index reported for the variant G13A A14U is 0.6 or above.
0

Confirm if exon inclusion enrichment index reported for the variant G5A U7C G8A U10C C24U is 0.6 or above.
1

Confirm if exon inclusion enrichment index reported for the variant G5A C6G U7G C9A A37C G38C is 0.6 or above.
0

Confirm if exon inclusion enrichment index reported for the variant C6A U7A C9A U10A U17C C18A is 0.6 or above.
0

Confirm if exon inclusion enrichment index reported for the variant C6A U7C C9A U10C C16A U17G is 0.6 or above.
1

Confirm if exon inclusion enrichment index reported for the variant C22A is 0.6 or above.
1

Confirm if exon inclusion enrichment index reported for the variant A39C is 0.6 or above.
0

Confirm if exon inclusion enrichment index reported for the variant G5U G8U C9U C36A A37C is 0.6 or above.
0

Confirm if exon inclusion enrichment index reported for the variant C6A U7A C9A U10A G12U G13A is 0.6 or above.
1

Confirm if exon inclusion enrichment index reported for the variant G5C C6U G8C C9U U10C A25G G26A is 0.6 or above.
1

Confirm if exon inclusion enrichment index reported for the variant C6A U7A C9A U10A G46C A47U is 0.6 or above.
1

Confirm if exon inclusion enrichment index reported for the variant U3A G5A C6G U7G C9A is 0.6 or above.
0

Confirm if exon inclusion enrichment index reported for the variant G5A C6G U7A G8C C9A is 0.6 or above.
0

Confirm if exon inclusion enrichment index reported for the variant C6G U7G C9A U10A is 0.6 or above.
0

Confirm if exon inclusion enrichment index reported for the variant G5C C6G U7C U10C A29G A30C is 0.6 or above.
1

Confirm if exon inclusion enrichment index reported for the variant C6A U7A C9A U10A A45C is 0.6 or above.
1

Confirm if exon inclusion enrichment index reported for the variant G5A C6U U7A G8U C9A A14U is 0.6 or above.
0

Confirm if exon inclusion enrichment index reported for the variant G5U G8U C9U G13A A14G is 0.6 or above.
0

Confirm if exon inclusion enrichment index reported for the variant G5C C6U G8C C9U U10C G33U is 0.6 or above.
1

Confirm if exon inclusion enrichment index reported for the variant C6A U7C C9A U10C U32C is 0.6 or above.
1

Confirm if exon inclusion enrichment index reported for the variant G5U G8U C9U U27G G28A is 0.6 or above.
0

Confirm if exon inclusion enrichment index reported for the variant G43A C44U is 0.6 or above.
0

Confirm if exon inclusion enrichment index reported for the variant A40U G41A is 0.6 or above.
0

Confirm if exon inclusion enrichment index reported for the variant C6A U7C is 0.6 or above.
0

Confirm if exon inclusion enrichment index reported for the variant G5A C6U U7A G8U C9A A40G G41C is 0.6 or above.
0

Confirm if exon inclusion enrichment index reported for the variant G5C C6G U7C U10C G38C A39C is 0.6 or above.
1

Confirm if exon inclusion enrichment index reported for the variant G5C C6G U7C U10C A14C is 0.6 or above.
1

Confirm if exon inclusion enrichment index reported for the variant A47G G48A is 0.6 or above.
0

Confirm if exon inclusion enrichment index reported for the variant C6A U7C C9A U10C U17G C18A is 0.6 or above.
1

Confirm if exon inclusion enrichment index reported for the variant U4G G5C is 0.6 or above.
0

Confirm if exon inclusion enrichment index reported for the variant G5U G8U C9U C22A A23G is 0.6 or above.
0

Confirm if exon inclusion enrichment index reported for the variant G5C C6U G8C C9U U10C A29C A30U is 0.6 or above.
1

Confirm if exon inclusion enrichment index reported for the variant U32A G33U is 0.6 or above.
0

Confirm if exon inclusion enrichment index reported for the variant G5A C6G U7G C9A G26U U27C is 0.6 or above.
0

Confirm if exon inclusion enrichment index reported for the variant C6A U7A C9A U10A G46U A47U is 0.6 or above.
1

Confirm if exon inclusion enrichment index reported for the variant G5C C6G U7C U10C G46U A47U is 0.6 or above.
1

Confirm if exon inclusion enrichment index reported for the variant G5C C6U G8C C9U U10C A39G A40C is 0.6 or above.
1

Confirm if exon inclusion enrichment index reported for the variant U3C U4G G5A U7C G8A U10C is 0.6 or above.
1

Confirm if exon inclusion enrichment index reported for the variant G5U G8U C9U A14U G15U is 0.6 or above.
0

Confirm if exon inclusion enrichment index reported for the variant G5U G8U C9U C18U C19G is 0.6 or above.
0

Confirm if exon inclusion enrichment index reported for the variant G13U A14U is 0.6 or above.
0
